# test_target: Dual specificity mitogen-activated protein kinase kinase 1 (Homo sapiens, UniProt Q02750)
# Sequence (Q02750 whole entry): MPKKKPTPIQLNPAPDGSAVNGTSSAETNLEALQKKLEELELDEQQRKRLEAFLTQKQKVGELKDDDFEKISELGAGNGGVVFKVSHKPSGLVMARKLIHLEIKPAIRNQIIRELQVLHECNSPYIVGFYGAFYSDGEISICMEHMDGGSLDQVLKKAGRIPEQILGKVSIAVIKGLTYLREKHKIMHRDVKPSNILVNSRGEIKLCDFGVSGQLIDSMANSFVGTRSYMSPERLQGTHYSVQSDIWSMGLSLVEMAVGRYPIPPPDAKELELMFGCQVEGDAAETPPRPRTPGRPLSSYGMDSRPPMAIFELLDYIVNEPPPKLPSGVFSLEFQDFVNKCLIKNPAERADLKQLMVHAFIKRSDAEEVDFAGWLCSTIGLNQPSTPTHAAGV
# assay_info: MEK 1/2 inhibition
property: IC50 (nM)
Write it as a number; the unit nM goes unstated.

stdin: State its IC50 on Dual specificity mitogen-activated protein kinase kinase 1 (Homo sapiens, UniProt Q02750): O=C(NOC[C@@H](O)CO)c1cc(Br)c(F)c(F)c1Nc1ccc(I)cc1F [US11147816, PD318088]
stdout: 1.4

====

# test_target: Dual specificity mitogen-activated protein kinase kinase 2 (Homo sapiens)
# Sequence (P36507 whole entry): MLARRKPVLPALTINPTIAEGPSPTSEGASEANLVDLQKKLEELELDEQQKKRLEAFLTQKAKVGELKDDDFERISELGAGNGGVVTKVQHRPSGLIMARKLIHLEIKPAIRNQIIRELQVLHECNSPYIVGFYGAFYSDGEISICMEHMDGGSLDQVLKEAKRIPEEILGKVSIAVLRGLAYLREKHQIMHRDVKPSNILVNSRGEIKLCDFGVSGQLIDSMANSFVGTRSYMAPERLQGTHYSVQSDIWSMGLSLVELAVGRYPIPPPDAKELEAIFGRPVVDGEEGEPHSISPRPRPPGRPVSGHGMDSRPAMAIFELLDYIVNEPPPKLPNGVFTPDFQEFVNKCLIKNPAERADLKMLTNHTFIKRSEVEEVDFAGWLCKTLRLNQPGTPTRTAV
# assay_info: MEK 1/2 inhibition
property: IC50 (nM)
Write it as a number; the unit nM goes unstated.

stdin: Query: IC50; subject: COc1cc(F)c(F)c(Nc2ccc(I)cc2F)c1NS(=O)(=O)C1(C[C@H](O)CO)CC1 [US11147816, Refametinib (RDEA119, Bay]
stdout: 47
